Biological target: human ETB receptor (Homo sapiens)
Construct: expressed in transfected cells; host or cells: CHO-K1 cells, pRc-CMW (so in the source) expression vector, electroporation; membranes used
Sequence (P24530 27-442): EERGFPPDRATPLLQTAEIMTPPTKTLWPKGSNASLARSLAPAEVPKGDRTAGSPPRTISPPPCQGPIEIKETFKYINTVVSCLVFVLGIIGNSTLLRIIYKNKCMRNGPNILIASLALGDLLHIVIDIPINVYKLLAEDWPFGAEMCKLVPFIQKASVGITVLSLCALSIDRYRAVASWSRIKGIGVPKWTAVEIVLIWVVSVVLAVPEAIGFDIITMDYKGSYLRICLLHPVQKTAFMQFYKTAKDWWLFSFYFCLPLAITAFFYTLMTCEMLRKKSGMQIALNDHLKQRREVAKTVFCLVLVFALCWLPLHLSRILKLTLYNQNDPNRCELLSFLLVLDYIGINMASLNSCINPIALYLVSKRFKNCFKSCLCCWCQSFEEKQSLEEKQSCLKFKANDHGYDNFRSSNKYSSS
Assay: ERBA-B: [125I]-ET-1 binding, recombinant human ETB receptor expressed in CHO-K1 cells
Conditions: human cloned ETB receptor, read-out: ERBA-B IC50, human cloned receptor data
Description: Count filters for radioactivity in gamma counter. The above process has also been modified by using human recombinant CHO-K1 cells. The tissue used for human ETB was recombinant human ETB receptor expressed in CHO-K1 cells (chinese hamster ovary cells). The gene for human ETB receptor was cloned and inserted into the pRc-CMW expression vector, then transfected into CHO-K1 cells by electroporation. […]
Where a name gives a salt, the structure may show the parent alone.
Endpoint name: pIC50
// field semantics: pIC50 = negative decimal log of concentration (mol/L)

[in] What does the data say about its pIC50? Entry: COc1ccc(C2(O)OC(=O)C(c3ccc4c(c3)OCO4)=C2Cc2cccnc2)cc1 (racemic) [Example 165, monohydrochloride]
[out] 4.60

[in] Repeat for the following compound: COc1ccc(C2(O)OC(=O)C(c3ccc4c(c3)OCO4)=C2Cc2cc(OC)c(OC)c(OC)c2)cc1C (stereo not shown)
[out] 6.54

[in] What about this compound? COc1ccc(C2(O)OC(=O)C(c3ccc4c(c3)OCO4)=C2Cc2cc(C)c(OC)c(C)c2)cc1 (stereo not shown)
[out] 6.24

[in] Check CCCOc1cccc(CC2=C(c3cc(OC)cc(OC)c3)C(=O)OC2(O)c2ccc(OC)cc2)c1 (stereo not shown) too.
[out] 5.82

[in] Moving on to COc1ccc(C2(O)OC(=O)C(c3ccc4c(c3)OCO4)=C2Cc2cccc(OC)c2OC)cc1 (stereo not shown)
[out] 5.66

[in] Same question, COc1ccc(C(=O)/C(Cc2ccc(C(=O)NCCN3CCOCC3)cc2)=C(\C(=O)O)c2ccc3c(c2)OCO3)cc1 this time
[out] 4.60

[in] Likewise for CCOC(=O)COc1c(OC)cc(CC2=C(c3ccc4c(c3)OCO4)C(=O)OC2(O)c2ccc(OC)cc2)cc1OC (stereo not shown) ?
[out] 5.92

* * *

For each record, write down the corresponding pIC50.
target: ETA (Oryctolagus cuniculus, UniProt A5A8K3); details: ERBA-A IC50, [125I]-ET-1, rabbit renal artery vascular smooth muscle cells
Sequence (A5A8K3 21-427): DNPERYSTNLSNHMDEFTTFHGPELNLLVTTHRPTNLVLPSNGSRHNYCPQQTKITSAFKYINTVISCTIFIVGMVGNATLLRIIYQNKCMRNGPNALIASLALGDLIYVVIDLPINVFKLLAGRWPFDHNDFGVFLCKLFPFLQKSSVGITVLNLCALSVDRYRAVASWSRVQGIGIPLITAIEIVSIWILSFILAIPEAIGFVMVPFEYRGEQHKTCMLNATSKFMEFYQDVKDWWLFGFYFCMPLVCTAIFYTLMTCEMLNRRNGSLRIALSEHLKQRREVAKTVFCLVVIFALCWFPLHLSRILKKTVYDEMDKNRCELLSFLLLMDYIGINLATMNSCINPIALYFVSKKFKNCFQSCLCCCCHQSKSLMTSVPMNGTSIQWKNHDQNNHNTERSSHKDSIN
Worth noting: pIC50 values are minus log10 of concentrations stated in mol/L.

[in] Suppose we examine the molecule COc1ccc(CC2=C(c3ccc(OC)c(OC)c3)C(=O)OC2(O)c2ccc(Cl)cc2)cc1OC (racemic) ; what pIC50 value has been reported?
[out] 5.77

[in] Another molecule: COc1cc(OC)cc(C2=C(Cc3ccc(NC(C)=O)cc3)C(O)(c3ccc(OC)c(C)c3)OC2=O)c1 (stereo not drawn)
[out] 9.10

[in] Also CCCCCCCCOc1ccc(CC2=C(c3ccc4c(c3)OCO4)C(=O)OC2(O)c2ccc(OC)c(C)c2)cc1OC (stereo not drawn) ?
[out] 7.17

[in] Next molecule up: COc1cc(OC)cc(/C(C(=O)O)=C(\Cc2c(OC)cc(OC)cc2OC)C(=O)c2ccc(OC)c(C)c2)c1
[out] 5.42

[in] Same for COc1ccc(C2(O)OC(=O)C(c3cc(OC)c4c(c3)OCO4)=C2Cc2cc(OC)c(OC)c(OC)c2)cc1C (stereo not drawn)
[out] 8.70

[in] Moving on to Cc1ccccc1C1(O)OC(=O)C(c2ccc3c(c2)OCO3)=C1Cc1ccccc1 (stereo not drawn)
[out] 6.54
